B1: NADP-dependent isopropanol dehydrogenase, P25984 (parent)
chain: MKGFAMLGINKLGWIEKERPVAGSYDAIVRPLAVSPCTSDIHTVFEGALGDRKNMILGHEAVGEVVEVGSEVKDFKPGDRVIVPCTTPDWRSLEVQAGFQQHSNGMLAGWKFSNFKDGVFGEYFHVNDADMNLAILPKDMPLENAVMITDMMTTGFHGAELADIQMGSSVVVIGIGAVGLMGIAGAKLRGAGRIIGVGSRPICVEAAKFYGATDILNYKNGHIVDQVMKLTNGKGVDRVIMAGGGSETLSQAVSMVKPGGIISNINYHGSGDALLIPRVEWGCGMAHKTIKGGLCPGGRLRAEMLRDMVVYNRVDLSKLVTHVYHGFDHIEEALLLMKDKPKDLIKAVVIL

# Variants of: B1
# assayConditions: Clostridium beijerinckii; pH 6.8; Thermal; CD; Na/K phosphate 50 mM; structure 1KEV; whole UniProt chain shown
Let's look at some variants and their measured Tm.
Quick note: give the figure in °C, leave out the unit.

The examples below pair each entry with its known result.
V224E S254K Q165E M304R; 73.7
Q165E M304R; 70.4
V224E S254K; 70.5

Turning now to a further record.
## Task GET /values?readout=Tm&item= V224E S254K Q165E M304R R238A
## Result 73.6

Where do these numbers come from? They come from FireProtDB.
